Where these numbers come from: PubChem BioAssay AID588676

# SYSTEM NAME: Mas-related G-protein coupled receptor member X1 (Homo sapiens) (UniProt Q96LB2)
# Sequence (Q96LB2 whole entry, looked up): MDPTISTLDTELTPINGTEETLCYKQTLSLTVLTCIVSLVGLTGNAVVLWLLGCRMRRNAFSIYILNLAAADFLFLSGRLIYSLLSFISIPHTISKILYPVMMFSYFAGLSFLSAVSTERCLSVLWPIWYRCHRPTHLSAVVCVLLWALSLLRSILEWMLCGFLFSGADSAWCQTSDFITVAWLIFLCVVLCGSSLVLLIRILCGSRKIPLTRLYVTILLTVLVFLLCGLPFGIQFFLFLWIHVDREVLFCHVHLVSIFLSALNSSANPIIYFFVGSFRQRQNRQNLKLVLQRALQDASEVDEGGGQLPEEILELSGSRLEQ
# TEST SUMMARY: blockade of BAM8-22-evoked MrgX1 calcium response – HEK293 cells, Fluo-4 calcium flux, primary screen (AID 588676)
# ASSAY SETUP: Fluo-4, BAM8-22 antagonism, at 10 µM
The campaign covered roughly 310,000 compounds. About 3,900 (1.3%) were called active.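 Rule for the calls: active = calcium-response B-score plate-corrected more than 3 library SD below zero, starting fluorescence within 5 deviations, no agonist response on first addition; inactive = the rest.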 The full list was thinned out, with actives kept by preference.
Outcome codes: active, inactive

1. Cc1ccc(NC(=O)/C(=C/c2ccc([N+](=O)[O-])cc2)NC(=O)c2ccccc2)cc1	inactive
2. CCCOc1ccc(NC(=O)CC2C(=O)N(C)C(=S)N2Cc2ccc3c(c2)OCO3)cc1 (stereo unspecified)	inactive
3. O=C(Cc1ccccc1)Nc1c(C(=O)N2CCCCCC2)cnn1-c1ccccc1	inactive
4. O=C(O)c1ccc2c(c1)C(=O)N(NC(=O)c1ccc(O)cc1)C2=O	inactive
5. O=C(COC(=O)c1ncc(Cl)c(Cl)c1Cl)NCc1cccs1	inactive
6. O=C(COC(=O)c1ncc(Cl)c(Cl)c1Cl)NNC(=O)c1ccccc1	active
7. CC(C)(C)c1ccc(/C=C/C(=O)Nc2ncccn2)cc1	inactive
8. O=C(c1ccc(O)cc1)c1ccc(C(=O)O)c(C(=O)O)c1	active
9. COc1ccc(CCNC(=O)C2CC3Cn4c(nc5cc(C)c(C)cc54)C3N2C)cc1 (stereo unspecified)	inactive
10. O=C(CSc1nncn1-c1cccnc1)N1CCOCC1	active
11. NS(=O)(=O)c1cc(C(=O)OCC(=O)NNC(=O)c2ccccc2)ccc1Cl	inactive
12. O=C(Nc1ccc(Cl)cc1)C1c2cccc[n+]2CC(=O)N1Cc1ccc2c(c1)OCO2 (stereo unspecified)	active
13. O=[N+]([O-])c1ccc(NC(=S)N2CCN(c3ccccn3)CC2)cc1	inactive
14. CC1=NN(c2ccccc2)C(=O)C1C(=O)c1ccc([N+](=O)[O-])cc1 (stereo unspecified)	active
15. C=CCN1CC(C)/C(=N\O)CC1C (stereo unspecified)	inactive
16. CCn1c(SCC(=O)NC2CC2)nnc1-c1ccccc1OC	inactive
17. Cc1cc(C)c(C#N)c(Nc2cccc(Br)c2)n1	inactive
18. O=C(N/N=C/c1ccccc1O)C1CCCC1	active
19. COc1ccc(S(=O)(=O)N2CCOCC2)c(C)c1C	active
20. O=C(CSc1nnc(Cc2ccccc2)n1-c1ccccc1)N1CCOCC1	inactive
21. COC(=O)c1ccc(NC(=O)CSc2nncn2-c2cccnc2)cc1	inactive
